Below: a set of entries, each annotated with reported RLU, fluorescence trace.
- MEASURED_TARGET: human TAS2R4 (Homo sapiens, UniProt Q9NYW5)
- Construct: expressed in transfected cells; host or cells: HEK293T-Gα16gust44
- Sequence (Q9NYW5 whole entry): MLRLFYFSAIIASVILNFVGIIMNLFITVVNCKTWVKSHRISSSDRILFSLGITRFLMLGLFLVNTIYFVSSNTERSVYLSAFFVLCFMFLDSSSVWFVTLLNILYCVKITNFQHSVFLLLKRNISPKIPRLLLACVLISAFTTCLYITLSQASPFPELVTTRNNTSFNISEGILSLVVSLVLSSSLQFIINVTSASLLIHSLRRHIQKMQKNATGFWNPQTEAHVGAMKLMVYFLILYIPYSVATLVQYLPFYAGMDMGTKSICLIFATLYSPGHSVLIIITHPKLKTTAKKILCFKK
- ASSAY_COMMENT: Calcium imaging assay (FLIPR), HEK293T-Gα16gust44 cells transfected with human TAS2R4; also: test concentration or dose not given here
- Type: cell-based
- CONDITIONS_USED: Time (s) 72.781 (TCA, TLCA: 72.782)
- Procedure: This set of bile acids was chosen because of their commercial availability in high purities, their diversity within the class of bile acids and their previous detection and quantitation in human blood. Stock solutions were prepared in DMSO. […] Measured data were negative control corrected by subtracting the signal of the mock-transfected cells and exported to Microsoft Excel using the FLIPR software ScreenWorks 4.2. […]
Hi! Could you send only the number? It should be in RLU, unit omitted.

C[C@H](CCC(=O)O)[C@H]1CC[C@H]2[C@@H]3[C@@H](O)C[C@@H]4C[C@H](O)CC[C@]4(C)[C@H]3CC[C@]12C : 389.174

The compound listed as C[C@H](CCC(=O)O)[C@H]1CC[C@H]2[C@@H]3CC[C@@H]4C[C@H](O)CC[C@]4(C)[C@H]3C[C@H](O)[C@]12C shows RLU, fluorescence trace equal to 371.417

RLU, fluorescence trace measured on C[C@H](CCC(=O)O)[C@H]1CC[C@H]2[C@@H]3[C@H](O)C[C@@H]4C[C@H](O)CC[C@]4(C)[C@H]3C[C@H](O)[C@]12C = 677.656

----------
- MEASURED_TARGET: human TAS2R1 (Homo sapiens, UniProt Q9NYW7)
- Construct: expressed in transfected cells; host or cells: HEK293T-Gα16gust44
- Sequence (Q9NYW7 whole entry): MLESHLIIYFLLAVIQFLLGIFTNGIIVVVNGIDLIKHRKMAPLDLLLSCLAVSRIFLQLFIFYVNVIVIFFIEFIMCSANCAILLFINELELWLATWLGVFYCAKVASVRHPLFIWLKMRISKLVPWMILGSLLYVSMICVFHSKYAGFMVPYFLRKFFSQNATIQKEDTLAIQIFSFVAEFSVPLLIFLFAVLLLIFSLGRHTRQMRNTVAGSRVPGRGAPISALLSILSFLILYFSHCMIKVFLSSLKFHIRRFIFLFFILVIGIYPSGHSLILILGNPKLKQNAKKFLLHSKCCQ
- ASSAY_COMMENT: Calcium imaging assay (FLIPR), HEK293T-Gα16gust44 cells transfected with human TAS2R1
- Format: cell-based
- CONDITIONS_USED: Time 92.781 s
- Procedure: This set of bile acids was chosen because of their commercial availability in high purities, their diversity within the class of bile acids and their previous detection and quantitation in human blood. Stock solutions were prepared in DMSO. […] Measured data were negative control corrected by subtracting the signal of the mock-transfected cells and exported to Microsoft Excel using the FLIPR software ScreenWorks 4.2. […]
ASSAY_ENDPOINT: RLU (RLU)
Form entry: value (RLU) — number only.

Reference set, count: 3
C[C@H](CCC(=O)NCC(=O)O)[C@H]1CC[C@H]2[C@@H]3[C@H](O)C[C@@H]4C[C@H](O)CC[C@]4(C)[C@H]3C[C@H](O)[C@]12C : 543.758
C[C@H](CCC(=O)NCCS(=O)(=O)O)[C@H]1CC[C@H]2[C@@H]3CC[C@@H]4C[C@H](O)CC[C@]4(C)[C@H]3CC[C@]12C : 709.593
C[C@H](CCC(=O)NCCS(=O)(=O)O)[C@H]1CC[C@H]2[C@@H]3[C@H](O)C[C@@H]4C[C@H](O)CC[C@]4(C)[C@H]3C[C@H](O)[C@]12C : 396.047

Now let's try a different one.
Memo: C[C@H](CCC(=O)O)[C@H]1CC[C@H]2[C@@H]3CC[C@@H]4C[C@H](O)CC[C@]4(C)[C@H]3C[C@H](O)[C@]12C , reported RLU: 377.402

----------
- MEASURED_TARGET: mouse Tas2r105 (Mus musculus)
- Construct: expressed in transfected cells; host or cells: HEK293T-Gα16gust44
- Sequence (Q9JKT4 whole entry): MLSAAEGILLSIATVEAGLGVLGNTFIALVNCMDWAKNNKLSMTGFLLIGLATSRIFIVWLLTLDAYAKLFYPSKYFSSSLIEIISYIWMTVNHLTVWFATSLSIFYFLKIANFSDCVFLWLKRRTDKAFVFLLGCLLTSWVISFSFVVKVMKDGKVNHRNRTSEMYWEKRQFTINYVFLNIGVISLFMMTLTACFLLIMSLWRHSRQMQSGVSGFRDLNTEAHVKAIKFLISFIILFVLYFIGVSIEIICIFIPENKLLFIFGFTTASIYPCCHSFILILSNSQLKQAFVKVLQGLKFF
- ASSAY_COMMENT: Calcium imaging assay (FLIPR), HEK293T-Gα16gust44 cells transfected with mouse Tas2r105
- Format: cell-based
- CONDITIONS_USED: Time 30.781 s
- Procedure: This set of bile acids was chosen because of their commercial availability in high purities, their diversity within the class of bile acids and their previous detection and quantitation in human blood. Stock solutions were prepared in DMSO. […] Measured data were negative control corrected by subtracting the signal of the mock-transfected cells and exported to Microsoft Excel using the FLIPR software ScreenWorks 4.2. […]
ASSAY_ENDPOINT: RLU
Record the result as number plus unit.

Known results for compounds:
C[C@H](CCC(=O)NCC(=O)O)[C@H]1CC[C@H]2[C@@H]3[C@H](O)C[C@@H]4C[C@H](O)CC[C@]4(C)[C@H]3C[C@H](O)[C@]12C : 33.1924 RLU
C[C@H](CCC(=O)O)[C@H]1CC[C@H]2[C@@H]3CC[C@@H]4C[C@H](O)CC[C@]4(C)[C@H]3C[C@H](O)[C@]12C : -6.367 RLU
C[C@H](CCC(=O)O)[C@H]1CC[C@H]2[C@@H]3[C@H](O)C[C@@H]4C[C@H](O)CC[C@]4(C)[C@H]3C[C@H](O)[C@]12C : 49.6279 RLU

Continue with the next compound.
The measured RLU associated with C[C@H](CCC(=O)O)[C@H]1CC[C@H]2[C@@H]3CC[C@@H]4C[C@H](O)CC[C@]4(C)[C@H]3CC[C@]12C reads -9.837 RLU

----------
- MEASURED_TARGET: human TAS2R1 (Homo sapiens)
- Construct: expressed in transfected cells; host or cells: HEK293T-Gα16gust44
- ASSAY_COMMENT: Calcium imaging assay (FLIPR), HEK293T-Gα16gust44 cells transfected with human TAS2R1
- Format: cell-based
- CONDITIONS_USED: Time 106.796 s
Here, each record is paired with measured RLU data.
Quick reminder: number only, in RLU, skip the unit.

C[C@H](CCC(=O)O)[C@H]1CC[C@H]2[C@@H]3[C@H](O)C[C@@H]4C[C@H](O)CC[C@]4(C)[C@H]3C[C@H](O)[C@]12C : 554.874
C[C@H](CCC(=O)O)[C@H]1CC[C@H]2[C@@H]3CC[C@@H]4C[C@H](O)CC[C@]4(C)[C@H]3CC[C@]12C : 867.268
C[C@H](CCC(=O)O)[C@H]1CC[C@H]2[C@@H]3[C@H](O)C[C@@H]4C[C@H](O)CC[C@]4(C)[C@H]3CC[C@]12C : 693.426

Would you kindly look at the next entry?
Known value: human TAS2R1 (Homo sapiens) RLU of the compound C[C@H](CCC(=O)O)[C@H]1CC[C@H]2[C@@H]3[C@@H](O)C[C@@H]4C[C@H](O)CC[C@]4(C)[C@H]3CC[C@]12C equals 432.725

----------
- MEASURED_TARGET: human TAS2R4 (Homo sapiens)
- Construct: expressed in transfected cells; host or cells: HEK293T-Gα16gust44
- ASSAY_COMMENT: Calcium imaging assay (FLIPR), HEK293T-Gα16gust44 cells transfected with human TAS2R4; also: test concentration or dose not given here
- Type: cell-based
- CONDITIONS_USED: Time (s) 20.781 (TCA, TLCA: 20.782)
ASSAY_ENDPOINT: RLU, fluorescence trace (RLU)
Unit RLU implied. Number only.

As a guide, the following entries are already answered.
C[C@H](CCC(=O)O)[C@H]1CC[C@H]2[C@@H]3[C@@H](O)C[C@@H]4C[C@H](O)CC[C@]4(C)[C@H]3CC[C@]12C : -77.5296
C[C@H](CCC(=O)NCCS(=O)(=O)O)[C@H]1CC[C@H]2[C@@H]3[C@H](O)C[C@@H]4C[C@H](O)CC[C@]4(C)[C@H]3C[C@H](O)[C@]12C : 9.231
C[C@H](CCC(=O)O)[C@H]1CC[C@H]2[C@@H]3[C@H](O)C[C@@H]4C[C@H](O)CC[C@]4(C)[C@H]3C[C@H](O)[C@]12C : -52.2052
C[C@H](CCC(=O)NCCS(=O)(=O)O)[C@H]1CC[C@H]2[C@@H]3CC[C@@H]4C[C@H](O)CC[C@]4(C)[C@H]3CC[C@]12C : 0.7554
C[C@H](CCC(=O)O)[C@H]1CC[C@H]2[C@@H]3CC[C@@H]4C[C@H](O)CC[C@]4(C)[C@H]3C[C@H](O)[C@]12C : -95.6069

So, C[C@H](CCC(=O)NCC(=O)O)[C@H]1CC[C@H]2[C@@H]3[C@H](O)C[C@@H]4C[C@H](O)CC[C@]4(C)[C@H]3C[C@H](O)[C@]12C ? Its RLU, fluorescence trace was -42.9373

----------
- MEASURED_TARGET: human TAS2R1 (Homo sapiens, UniProt Q9NYW7)
- Construct: expressed in transfected cells; host or cells: HEK293T-Gα16gust44
- ASSAY_COMMENT: Calcium imaging assay (FLIPR), HEK293T-Gα16gust44 cells transfected with human TAS2R1
- Format: cell-based
- CONDITIONS_USED: Time 2 s
In this section, each of the compounds is paired with its reported RLU.
Answer format: number, then unit.

Known RLU results, listed for orientation:
C[C@H](CCC(=O)NCCS(=O)(=O)O)[C@H]1CC[C@H]2[C@@H]3CC[C@@H]4C[C@H](O)CC[C@]4(C)[C@H]3CC[C@]12C [Taurolithocholic Acid, taurolithocholic acid] : -8.765 RLU
C[C@H](CCC(=O)NCCS(=O)(=O)O)[C@H]1CC[C@H]2[C@@H]3[C@H](O)C[C@@H]4C[C@H](O)CC[C@]4(C)[C@H]3C[C@H](O)[C@]12C [Taurocholic Acid, taurocholic acid] : 7.952 RLU
C[C@H](CCC(=O)O)[C@H]1CC[C@H]2[C@@H]3CC[C@@H]4C[C@H](O)CC[C@]4(C)[C@H]3C[C@H](O)[C@]12C [Deoxycholic Acid, deoxycholic acid] : 0.493 RLU

Briefly, RLU measured for C[C@H](CCC(=O)NCC(=O)O)[C@H]1CC[C@H]2[C@@H]3[C@H](O)C[C@@H]4C[C@H](O)CC[C@]4(C)[C@H]3C[C@H](O)[C@]12C [Glycocholic Acid, glycocholic acid] : 1.34 RLU
